Values from paper PMC9167697

Experiment: Plasma pharmacokinetics of taminadenant in the phase I/Ib study
Type: in vivo, human
Details: human, in vivo
MEASURED METRIC: Vd/F

Query (compound): Nc1nc(-n2cccn2)nc(-n2cccn2)c1Br ; field requested: Vd/F 114 to 1520 L
